Origin of the recorded values: the RNAGym collection of RNA variant scans (doi:10.7554/elife.80360)

B1: CPEB3 Ribozyme (parent)
chain: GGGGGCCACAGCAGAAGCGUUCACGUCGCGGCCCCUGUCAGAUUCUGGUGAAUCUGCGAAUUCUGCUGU

Variants of: B1
Assay: self-cleavage, relative activity (ratio to wild type); higher = more cleavage; co-transcriptional
Label scheme for self-cleavage: lower than 0.8 is 0.0, 0.8 and above is 1.0.

mutation id	label
C22U A60G	0.0
U46C U67C	1.0
U44C U62G	0.0
G3A C66U	0.0
G4C A59U	0.0
G17C A40U	0.0
G17C U20G	0.0
G3A U26G	0.0
A40G A51C	1.0
G17U C63U	0.0
G2A U49C	0.0
A40G G58U	1.0
A13U U44C	0.0
A15U C66G	0.0
G11A A15U	0.0
G19C G28A	0.0
G3C U69C	0.0
G30C G68U	1.0
G3U U61C	0.0
A13U G47A	1.0
G31A U61A	0.0
A15G G17A	0.0
G17C G30C	0.0
U38A U67G	1.0
U20C C39G	0.0
C6A A15C	0.0
C45U G47U	1.0
C24U C33A	0.0
C35A U69C	0.0
C32G U67A	0.0
A8C U49A	1.0
G11C U53C	0.0
G14U C22A	0.0
G4A G25A	0.0
U46A G50C	1.0
G17A G19A	0.0
G1A G11U	0.0
C39G G58U	1.0
G11A U44C	0.0
A8G U26G	0.0
G31U U67A	1.0
U21C G56U	0.0
G1C U36C	0.0
